// MIC lookup, one value per entry
test system: Pseudomonas aeruginosa; assay: Antibacterial activity against Pseudomonas aeruginosa PAO1 assessed as inhibition of bacterial growth by measuring minimum inhibitory concentration incubated for 18 to 20 hrs in presence of MH medium by broth microdilution assay; format: functional; conditions: time 18-20 hrs
PARAMETER: MIC

smiles_representation=CC(C)=CCc1c(O)ccc(C(=O)/C=C/c2ccc(OCCCOCc3c(O)c(=O)cc(C)n3C)cc2)c1O reported="32 mg/L"
smiles_representation=CC(C)=CCc1c(O)ccc(C(=O)/C=C/c2ccc(OCCCOCc3cc(=O)c(O)cn3C)cc2)c1O reported="32 mg/L"
smiles_representation=CC(C)=CCc1c(O)ccc(C(=O)/C=C/c2ccc(O)cc2)c1O reported="> 128 mg/L"
smiles_representation=CC(C)=CCc1c(O)ccc(C(=O)/C=C/c2ccc(OCCCCCCOCc3c(O)c(=O)cc(C)n3C)cc2)c1O reported="> 128 mg/L"
smiles_representation=CC(C)=CCc1c(OCCCCCC(=O)NCc2cc(=O)c(O)cn2C)ccc(C(=O)/C=C/c2ccc(O)cc2)c1O reported="32 mg/L"
smiles_representation=CC1(C)S[C@@H]2[C@H](NC(=O)[C@H](N)c3ccccc3)C(=O)N2[C@H]1C(=O)O reported="32 mg/L"
smiles_representation=CC(C)=CCc1c(O)ccc(C(=O)/C=C/c2ccc(OCCCCCCOCc3cc(=O)c(O)cn3C)cc2)c1O reported="16 mg/L"
smiles_representation=CC(C)=CCc1c(OCCCCn2cc(COCc3cc(=O)c(O)cn3C)nn2)ccc(C(=O)/C=C/c2ccc(O)cc2)c1O reported="32 mg/L"
smiles_representation=CC(C)=CCc1c(O)ccc(C(=O)/C=C/c2ccc(OCCCCCC(=O)NCc3cc(=O)c(O)cn3C)cc2)c1O reported="32 mg/L"
smiles_representation=CC(C)=CCc1c(OCCCCn2cc(COCc3c(O)c(=O)cc(C)n3C)nn2)ccc(C(=O)/C=C/c2ccc(O)cc2)c1O reported="64 mg/L"
smiles_representation=CCn1cc(C(=O)O)c(=O)c2cc(F)c(N3CCNCC3)cc21 reported="0.125 mg/L"
